# condition.description: in n-butanol, 298.15 K

- record.smiles: "CC(=O)N[C@@H](CC(C)C)C(=O)O"
  solubility (mole fraction): 0.0255

----------
# condition.description: in ethanol, 308.15 K
measurement.type: solubility (mole fraction)

- record.smiles: "CC(=O)N[C@@H](CC(C)C)C(=O)O"
  measurement.type: "solubility (mole fraction)"
  experimental.value: 0.0456

----------
# condition.description: in methyl acetate, 303.15 K

- record.smiles: "CC(=O)N[C@@H](CC(C)C)C(=O)O"
  solubility (mole fraction): 0.00223

----------
# condition.description: in methanol, 288.15 K

- record.smiles: "CC(=O)N[C@@H](CC(C)C)C(=O)O"
  solubility (mole fraction): 0.0357

----------
# condition.description: in acetonitrile, 303.15 K

- record.smiles: "CC(=O)N[C@@H](CC(C)C)C(=O)O"
  solubility (mole fraction): 0.00163

----------
# condition.description: in n-propyl acetate, 298.15 K

- record.smiles: "CC(=O)N[C@@H](CC(C)C)C(=O)O"
  solubility (mole fraction): 0.00149

----------
# condition.description: in isopropanol, 288.15 K
measurement.type: solubility (mole fraction)

- record.smiles: "CC(=O)N[C@@H](CC(C)C)C(=O)O"
  measurement.type: "solubility (mole fraction)"
  experimental.value: 0.0206

----------
# condition.description: in acetonitrile, 318.15 K
measurement.type: solubility (mole fraction)

- record.smiles: "CC(=O)N[C@@H](CC(C)C)C(=O)O"
  experimental.value: 0.00295

----------
# condition.description: in n-propyl acetate, 303.15 K

- record.smiles: "CC(=O)N[C@@H](CC(C)C)C(=O)O"
  solubility (mole fraction): 0.00177

----------
# condition.description: in sec-butanol, 303.15 K

- record.smiles: "CC(=O)N[C@@H](CC(C)C)C(=O)O"
  solubility (mole fraction): 0.0325

----------
# condition.description: in sec-butanol, 323.15 K
measurement.type: solubility (mole fraction)

- record.smiles: "CC(=O)N[C@@H](CC(C)C)C(=O)O"
  measurement.type: "solubility (mole fraction)"
  experimental.value: 0.0541

----------
# condition.description: in sec-butanol, 298.15 K
measurement.type: solubility (mole fraction)

- record.smiles: "CC(=O)N[C@@H](CC(C)C)C(=O)O"
  experimental.value: 0.0279

----------
# condition.description: in ethyl acetate, 303.15 K

- record.smiles: "CC(=O)N[C@@H](CC(C)C)C(=O)O"
  solubility (mole fraction): 0.00207

----------
# condition.description: in acetone, 298.15 K

- record.smiles: "CC(=O)N[C@@H](CC(C)C)C(=O)O"
  solubility (mole fraction): 0.0062

----------
# condition.description: in n-butanol, 293.15 K
measurement.type: solubility (mole fraction)

- record.smiles: "CC(=O)N[C@@H](CC(C)C)C(=O)O"
  experimental.value: 0.0221

----------
# condition.description: in n-propanol, 303.15 K

- record.smiles: "CC(=O)N[C@@H](CC(C)C)C(=O)O"
  solubility (mole fraction): 0.0329

----------
# condition.description: in isopropanol, 308.15 K
measurement.type: solubility (mole fraction)

- record.smiles: "CC(=O)N[C@@H](CC(C)C)C(=O)O"
  experimental.value: 0.0354

----------
# condition.description: in ethanol, 283.15 K
measurement.type: solubility (mole fraction)

- record.smiles: "CC(=O)N[C@@H](CC(C)C)C(=O)O"
  experimental.value: 0.0243
